- TARGET_SYSTEM: recombinant human EGFR exon 19 deletion/C797S double mutant protein (Homo sapiens (Human), UniProt P00533, C797S/DEL746-750)
- Sequence (P00533 other isoform, or with tags, fused parts or gaps C797S/del 1-668/del 746-750 limits assumed): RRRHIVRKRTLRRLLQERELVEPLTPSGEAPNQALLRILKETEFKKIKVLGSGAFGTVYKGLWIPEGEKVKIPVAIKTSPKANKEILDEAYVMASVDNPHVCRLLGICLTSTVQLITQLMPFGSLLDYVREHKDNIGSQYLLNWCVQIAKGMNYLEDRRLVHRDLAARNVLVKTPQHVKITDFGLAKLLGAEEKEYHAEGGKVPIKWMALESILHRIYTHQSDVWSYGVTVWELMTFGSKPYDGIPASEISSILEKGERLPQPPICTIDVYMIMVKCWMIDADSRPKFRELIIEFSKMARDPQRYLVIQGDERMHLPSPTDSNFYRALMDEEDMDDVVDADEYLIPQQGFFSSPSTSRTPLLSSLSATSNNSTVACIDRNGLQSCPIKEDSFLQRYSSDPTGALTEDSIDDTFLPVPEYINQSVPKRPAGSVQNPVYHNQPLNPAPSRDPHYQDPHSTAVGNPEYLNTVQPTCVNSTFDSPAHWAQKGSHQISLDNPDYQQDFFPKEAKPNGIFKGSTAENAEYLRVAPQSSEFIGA
- ASSAY_PROCEDURE: Biological Activity Assay C: biochemical assay against EGFR exon 19 deletion/C797S protein (EGFR d19/CS)
READOUT: pIC50
The scale used: pIC50 is minus the common logarithm of the concentration in molar units.

The cases that follow already have their pIC50 on record.
Cc1ccc(-c2cc3c(-c4cn(C5CS(=O)(=O)C5)nc4-c4ccc(F)cc4)ncnc3o2)c(C)n1 [Example 240] | 9.47
OCC(F)(F)Cn1cc(-c2ncnc3oc(-c4ccccc4)cc23)c(-c2ccc(F)cc2)n1 [Example 78] | 9.43
NC(=O)CCc1nc(-c2ccc(F)cc2)c(-c2ncnc3oc(-c4ccccc4)cc23)o1 [Example 49] | 8.75
NC(=O)CCn1cc(-c2ncnc3oc(-c4ccccc4)cc23)c(-c2ccc(F)cc2)n1 [Example 118] | 9.60

Proceeding to the next compound to report its pIC50.
May I ask what pIC50 has been recorded for O=S1(=O)CCCC(n2cc(-c3ncnc4oc(-c5ccccc5)cc34)c(-c3ccc(F)cc3)n2)C1 (stereo not drawn) [Example 84] ? 7.97
